Values from patent US9732075B2

Subject of test: human orexin-1 receptor (Homo sapiens (Human), UniProt O43613)
Sequence (O43613 whole entry): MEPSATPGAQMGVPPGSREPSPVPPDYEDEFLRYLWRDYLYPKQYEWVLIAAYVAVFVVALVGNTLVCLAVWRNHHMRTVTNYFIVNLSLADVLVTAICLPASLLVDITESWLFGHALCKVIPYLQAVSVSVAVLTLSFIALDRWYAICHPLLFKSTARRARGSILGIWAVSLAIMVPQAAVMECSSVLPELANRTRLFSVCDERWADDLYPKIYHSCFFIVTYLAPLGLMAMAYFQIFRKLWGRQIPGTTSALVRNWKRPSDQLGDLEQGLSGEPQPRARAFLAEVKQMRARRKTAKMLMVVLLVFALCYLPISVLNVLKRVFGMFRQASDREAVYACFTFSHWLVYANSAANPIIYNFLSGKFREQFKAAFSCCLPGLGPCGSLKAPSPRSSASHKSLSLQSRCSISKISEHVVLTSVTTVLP
Measurement protocol: In vitro assay: intracellular calcium measurements (FLIPR), antagonistic activity
Run conditions: CHO cells expressing human orexin-1 receptor, orexin-A agonist, geometric mean, read-out: IC50 Ox1
pIC50: −log10 of the molar value.
Endpoint label: pIC50

>>> df
                                   molecule  observed_result
0  COc1ccc2nc([C@@H]3CCCN3C(=O)c3cc(F)ccc3-n3nccn3)[nH]c2c1             5.74
1  Cc1ccc(C(=O)N2CC[C@H](C)[C@H]2c2nc3c(C)c(Cl)ccc3[nH]2)c(-c2ccccc2)c1             8.00
2  CO[C@H]1CN(C(=O)c2cc(C)ccc2-n2cccn2)C(C)(c2nc3c(C)c(Cl)ccc3[nH]2)C1 (stereo partly drawn)             8.00
3  C=C1C[C@@H](c2nc3cc(OC)ccc3[nH]2)N(C(=O)c2ccccc2-c2cccc(C)c2)C1             7.06
4  COc1ccc(-n2nccn2)c(C(=O)N2CC[C@H](C)[C@H]2c2nc3c(C)c(Cl)ccc3[nH]2)c1             9.00
5  Cc1ccc(C(=O)N2CCC[C@@]2(C)c2nc3cc(C)c(C)cc3n2C)c(-n2nccn2)c1             7.77
6  C=C1CC(c2nc3cc(OC)ccc3[nH]2)N(C(=O)c2nc(C3CC3)sc2-c2cccc(C)c2)C1 (racemic)             7.66
7  CSc1ccc2nc([C@@H]3CCCN3C(=O)c3cc(C#N)ccc3-n3nccn3)[nH]c2c1             6.55
8  CSc1cccc2nc([C@@H]3CCCN3C(=O)c3nccnc3-c3cccc(C(F)(F)F)c3)[nH]c12             6.87
9  Cc1ccc(-c2ccc(F)cc2C)c(C(=O)N2CCC[C@@]2(C)c2nc3c(C)c(C)ccc3[nH]2)c1             6.58

[a] CSc1ccc2nc([C@@H]3CCCN3C(=O)c3nc(C)sc3-c3cccc(Cl)c3)[nH]c2c1
[b] Cc1nc(C(=O)N2CC[C@H](C)[C@H]2c2nc3cc(CO)ccc3[nH]2)c(-c2cccc(Cl)c2)s1
[c] C=C1C[C@@H](c2nc3cccc(C)c3[nH]2)N(C(=O)c2nc(C)ccc2-n2nccn2)C1
With regard to pIC50, arrange the entries in ascending order, please. Give your ranking as a list of the labels in the requested order.
c, a, b

[I] Cc1nc(C(=O)N2CCCC2c2nc3cc(Cl)ccc3[nH]2)c(-c2cccc(Cl)c2)s1 (stereo not drawn)
[II] Cc1ccc(-n2nccn2)c(C(=O)N2CC[C@H](C)[C@H]2c2nc3c(C)c(C)ccc3[nH]2)c1
Smaller pIC50 value? Options are I and II Give the label of your selection.
I
